Biological target: Serine/threonine-protein kinase pim-1 (Homo sapiens, UniProt P11309)
Sequence (P11309 whole entry): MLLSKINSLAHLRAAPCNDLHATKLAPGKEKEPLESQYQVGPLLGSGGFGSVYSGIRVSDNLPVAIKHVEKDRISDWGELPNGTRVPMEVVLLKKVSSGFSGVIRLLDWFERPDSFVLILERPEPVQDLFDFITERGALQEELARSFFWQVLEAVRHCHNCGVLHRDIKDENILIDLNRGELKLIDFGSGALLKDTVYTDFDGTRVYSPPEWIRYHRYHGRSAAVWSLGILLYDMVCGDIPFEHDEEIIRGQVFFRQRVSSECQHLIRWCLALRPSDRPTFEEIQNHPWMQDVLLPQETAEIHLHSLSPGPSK
Experiment: Inhibition of human recombinant Pim1 expressed in Escherichia coli using histone H1 as substrate incubated for 30 mins in presence of ATP by scintillation counting method
pIC50: −log10 of the molar value.
Please respond with reported pIC50 for every item in the list.

Items follow; give pIC50 for each.
1. CN1C(=O)/C(=C/c2ccc3c(c2)OCO3)N=C1N
2. COc1cc(/C=C2\N=C(Nc3ccc(N4CCNCC4)cc3)NC2=O)ccc1O
3. COc1ccc(/C=C2\N=C(Nc3ccccc3)NC2=O)cc1

# output
1. < 5.00
2. < 5.00
3. ≤ 5.00

---

Molecular target: Dual specificity tyrosine-phosphorylation-regulated kinase 3 (Homo sapiens)
Sequence (O43781 whole entry, the tested form may be a part): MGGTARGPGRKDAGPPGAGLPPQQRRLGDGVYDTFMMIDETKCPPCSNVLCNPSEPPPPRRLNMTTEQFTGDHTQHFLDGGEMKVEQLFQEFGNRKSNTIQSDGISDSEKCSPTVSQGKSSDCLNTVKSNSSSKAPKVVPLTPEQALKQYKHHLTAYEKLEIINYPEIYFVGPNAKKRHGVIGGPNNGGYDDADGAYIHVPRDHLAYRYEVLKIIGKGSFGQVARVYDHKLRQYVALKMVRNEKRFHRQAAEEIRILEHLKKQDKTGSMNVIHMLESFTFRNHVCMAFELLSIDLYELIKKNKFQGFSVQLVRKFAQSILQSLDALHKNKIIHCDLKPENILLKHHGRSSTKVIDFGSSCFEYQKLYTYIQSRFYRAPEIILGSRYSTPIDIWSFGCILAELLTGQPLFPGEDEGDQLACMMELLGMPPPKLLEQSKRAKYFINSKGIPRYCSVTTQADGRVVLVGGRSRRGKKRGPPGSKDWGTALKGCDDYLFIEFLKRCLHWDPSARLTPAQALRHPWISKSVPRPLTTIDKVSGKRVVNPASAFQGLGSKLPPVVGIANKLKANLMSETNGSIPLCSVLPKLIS
Assay: Inhibition of GST-fused human recombinant DYRK3 expressed in Escherichia coli using GRSRSRSRSRSR peptide as substrate incubated for 30 mins in presence of ATP by scintillation counting method
Consider the following molecules; for each one, report its IC50.

Some molecules with known IC50 results, for comparison:
> print(dat)
                                   molecule  recorded.result
1  O=C1NC(Nc2ccccc2)=NC1Cc1ccc2c(c1)OCO2 (stereo not drawn)          > 10 µM
2  O=C1NC(Nc2ccc(N3CCCCC3)cc2)=N/C1=C\c1ccc2c(c1)OCO2          > 10 µM

Consider the additional molecule presented here.
# input Write IC50 of `CCCNC1=N/C(=C\c2ccc3c(c2)OCO3)C(=O)N1CCC` ; system used: Dual specificity tyrosine-phosphorylation-regulated kinase 3 (Homo sapiens)
# output > 10 µM

---

Biological target: Dual specificity tyrosine-phosphorylation-regulated kinase 1B (Homo sapiens, UniProt Q9Y463)
Sequence (Q9Y463 whole entry): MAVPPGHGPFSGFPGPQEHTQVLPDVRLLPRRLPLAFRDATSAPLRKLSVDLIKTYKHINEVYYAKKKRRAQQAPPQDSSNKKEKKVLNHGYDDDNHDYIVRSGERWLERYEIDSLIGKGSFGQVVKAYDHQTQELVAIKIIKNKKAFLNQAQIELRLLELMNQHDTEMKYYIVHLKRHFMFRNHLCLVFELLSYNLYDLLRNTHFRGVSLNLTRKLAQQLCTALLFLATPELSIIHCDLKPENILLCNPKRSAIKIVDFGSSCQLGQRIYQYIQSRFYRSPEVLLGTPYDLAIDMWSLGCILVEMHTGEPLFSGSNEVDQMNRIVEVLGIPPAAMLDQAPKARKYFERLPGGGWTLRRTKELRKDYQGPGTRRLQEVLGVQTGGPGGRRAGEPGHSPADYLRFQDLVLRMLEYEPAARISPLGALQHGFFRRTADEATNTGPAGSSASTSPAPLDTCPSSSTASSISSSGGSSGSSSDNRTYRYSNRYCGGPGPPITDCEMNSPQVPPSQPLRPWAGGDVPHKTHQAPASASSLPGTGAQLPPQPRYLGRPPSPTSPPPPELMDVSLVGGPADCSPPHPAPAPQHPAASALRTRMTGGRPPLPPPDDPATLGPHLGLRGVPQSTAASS
pIC50: −log10 of the molar value.
Consider the following compounds; for each one, report its pIC50.

// known answers, use as guide
> print(dat)
                                   compound  readout.label  recorded.result
1  CCCNC1=N/C(=C\c2ccc3c(c2)OCO3)C(=O)N1CCC          pIC50           < 5.00
2  O=C1NC(Nc2ccccc2)=NC1Cc1ccc2c(c1)OCO2 (stereo not drawn)          pIC50           < 5.00

Attention now shifts to the item below.
# input Dear colleague, please send me the reported pIC50 for `O=C1NC(Nc2ccc(-c3ccccc3)cc2)=N/C1=C\c1ccc2c(c1)OCO2` when you can.
# output < 5.00

---

Could you please report measured pIC50 for the items listed next?
Target: Dual specificity protein kinase CLK4 (Mus musculus)
Sequence (O35493 whole entry, the tested form may be a part): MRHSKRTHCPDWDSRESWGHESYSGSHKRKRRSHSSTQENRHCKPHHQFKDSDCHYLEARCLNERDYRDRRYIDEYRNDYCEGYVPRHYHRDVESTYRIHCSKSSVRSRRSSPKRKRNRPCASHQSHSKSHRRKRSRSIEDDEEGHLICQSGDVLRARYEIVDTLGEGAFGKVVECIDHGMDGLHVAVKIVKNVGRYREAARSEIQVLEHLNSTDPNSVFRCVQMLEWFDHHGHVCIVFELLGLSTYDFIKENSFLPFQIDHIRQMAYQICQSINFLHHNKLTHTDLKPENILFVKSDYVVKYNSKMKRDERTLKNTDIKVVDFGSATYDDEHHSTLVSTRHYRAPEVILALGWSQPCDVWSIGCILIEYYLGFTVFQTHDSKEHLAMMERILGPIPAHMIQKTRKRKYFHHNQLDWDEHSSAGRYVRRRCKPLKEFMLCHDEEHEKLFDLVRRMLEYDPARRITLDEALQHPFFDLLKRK
Assay: Inhibition of GST-fused mouse recombinant CLK4 expressed in Escherichia coli using GRSRSRSRSRSR peptide as substrate incubated for 30 mins in presence of ATP by scintillation counting method
One number for each entry, as −log10 of the molar value.

Field: example entries. Status: answers known.
> print(dat)
                                test.smiles  readout.label  recorded.result
1     CCCNC1=N/C(=C\c2ccc3c(c2)OCO3)C(=O)N1          pIC50             7.21
2  O=C1NC(Nc2ccc(Oc3ccccc3)cc2)=N/C1=C\c1ccc2c(c1)OCO2          pIC50             6.12
3  O=C1NC(Nc2ccc(N3CCNCC3)cc2)=N/C1=C\c1ccc2c(c1)OCO2          pIC50             6.28

Next compound, pIC50 to be filled in.
# input For `CN1C(=O)/C(=C/c2ccc3c(c2)OCO3)N=C1Nc1ccccc1` , write its pIC50.
# output 6.96
